Source: patent US20240417405A1

- target.under.test: menin/MLL (terbium chelate-labeled menin, FITC-MBM1 peptide) (Homo sapiens, UniProt O00255, T541A)
- Construct: Menin (a.a 1-610-6xhis tag)
- Sequence (O00255 with tags, fused parts or gaps T541A): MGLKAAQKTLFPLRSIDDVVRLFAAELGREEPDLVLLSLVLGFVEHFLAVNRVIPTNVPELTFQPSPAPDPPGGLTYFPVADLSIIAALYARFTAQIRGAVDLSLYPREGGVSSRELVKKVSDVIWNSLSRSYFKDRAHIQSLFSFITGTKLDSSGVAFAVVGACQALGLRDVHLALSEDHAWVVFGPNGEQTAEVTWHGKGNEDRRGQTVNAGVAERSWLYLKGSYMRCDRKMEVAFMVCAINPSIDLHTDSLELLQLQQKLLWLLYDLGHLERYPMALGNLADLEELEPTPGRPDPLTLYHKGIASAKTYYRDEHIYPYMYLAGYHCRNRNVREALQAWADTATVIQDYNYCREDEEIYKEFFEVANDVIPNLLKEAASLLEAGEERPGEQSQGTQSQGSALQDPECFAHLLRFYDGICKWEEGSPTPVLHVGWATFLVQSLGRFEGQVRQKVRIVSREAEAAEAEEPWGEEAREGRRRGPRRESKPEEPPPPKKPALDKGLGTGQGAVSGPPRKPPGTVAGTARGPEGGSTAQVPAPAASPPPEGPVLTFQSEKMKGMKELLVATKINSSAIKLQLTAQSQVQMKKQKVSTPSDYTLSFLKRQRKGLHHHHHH
- assay.summary: Menin/MLL homogenous time-resolved fluorescence (HTRF) assay
- measurement.conditions: 30 min incubation
Some compounds, each annotated with its measured IC50.
endpoint.name: IC50 (nM)

>  <compound>
CC(=O)N[C@H]1C[C@@H]([C@@H](C(C)C)N2CC3(CCN(c4ncnnc4Oc4ccc(F)cc4-c4ncncc4C4CC4)C3)C2)C1 (single isomer, unassigned)

>  <endpoint.name>
IC50

>  <value.observed>
0.3

$$$$
>  <compound>
CC(C)[C@H]([C@H]1C[C@@H](NC(=O)CC2COC2)C1)N1CC2(CCN(c3ncnnc3Oc3ccc(F)cc3-c3cncnc3C3CC3)C2)C1 (single isomer, unassigned)

>  <endpoint.name>
IC50

>  <value.observed>
0.2

$$$$
>  <compound>
CC(C)[C@@H]([C@H]1C[C@H](N(C)C)C1)N1CC2(CCN(c3ncnnc3Oc3ccc(F)cc3-c3cccnc3C3CC3)C2)C1 (single isomer, unassigned)

>  <endpoint.name>
IC50

>  <value.observed>
0.1

$$$$
>  <compound>
CC(C)[C@H]([C@H]1C[C@@H](N2CC3(CCN(C)C3=O)C2)C1)N1CC2(CCN(c3ncnnc3Oc3ccc(F)cc3-c3cncnc3C3CC3)C2)C1 (single isomer, unassigned)

>  <endpoint.name>
IC50

>  <value.observed>
0.1

$$$$
>  <compound>
CC(C)C([C@H]1C[C@@H](N2CC[C@@](C)(O)C2)C1)N1CC2(CCN(c3ncnnc3Oc3ccc(F)cc3-c3cnccc3C3CC3)C2)C1 (mixture of isomers)

>  <endpoint.name>
IC50

>  <value.observed>
0.2

$$$$
